I'd be grateful if you could share measured pIC50 for these entries.
- targetOfAssay: hMAT2A (Homo sapiens, UniProt P31153)
- Sequence (P31153 whole entry): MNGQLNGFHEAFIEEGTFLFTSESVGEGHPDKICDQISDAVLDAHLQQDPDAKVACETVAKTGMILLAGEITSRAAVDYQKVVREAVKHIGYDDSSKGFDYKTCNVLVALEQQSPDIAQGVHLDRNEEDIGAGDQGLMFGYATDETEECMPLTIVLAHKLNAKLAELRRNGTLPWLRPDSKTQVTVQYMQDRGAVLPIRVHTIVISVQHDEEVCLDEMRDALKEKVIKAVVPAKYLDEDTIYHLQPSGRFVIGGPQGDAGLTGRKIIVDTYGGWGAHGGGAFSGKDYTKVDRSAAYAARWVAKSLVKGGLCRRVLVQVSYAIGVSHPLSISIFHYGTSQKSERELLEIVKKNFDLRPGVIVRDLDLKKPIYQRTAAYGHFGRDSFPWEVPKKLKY
- assayInfo: Malachite Green Assay (MAT2A enzyme inhibition)
- Type: biochemical
- Design: amino acids 1-395; purchased Cepter
- measurementSetup: hMAT2A 50 nM, substrates 500 uM each, 1 hour, class symbols
pIC50: −log10 of the molar value.

smilesdata=O=c1nc(-c2ccccc2)c2cc(Br)ccc2[nH]1 targetofassay="hMAT2A (Homo sapiens, UniProt P31153)" experimentalendpoint=pIC50 value="6.70 to 8.00"

Item: O=c1nc(-c2ccccc2)c2cc(Cl)ccc2[nH]1 | pIC50: 6.70 to 8.00

----------
- targetOfAssay: hMAT2A (Homo sapiens, UniProt P31153)
- assayInfo: Phosphate Sensor Fluorescence Assay (MAT2A enzyme inhibition)
- Format: biochemical
- Parameters: Human MAT2A: Cepter, amino acids 1-395; purchased Cepter clone ID 329, lot 00023-123; clone ID 334, lot 00023-148
- measurementSetup: L-methionine and ATP 500 uM, 1 hour, class symbols
experimentalEndpoint: IC50

Examples with answers:
smilesdata=Oc1nc(-c2cccnc2)c2cc(Br)ccc2n1 value="1000 to 10000 nM"
smilesdata=Cc1ccc2[nH]c(=O)nc(-c3ccccc3)c2c1 value="500 to 1000 nM"
smilesdata=Oc1nc(-c2cccnc2Cl)c2cc(Br)ccc2n1 value="200 to 500 nM"
smilesdata=Oc1nc(-c2cccnc2C(F)(F)F)c2cc(Br)ccc2n1 value="1000 to 10000 nM"
smilesdata=O=c1nc(-c2ccccc2)c2cc(Br)ccc2[nH]1 value="10 to 200 nM"
smilesdata=Cc1ccc2nc(O)nc(-c3ccccc3)c2n1 value="1000 to 10000 nM"
smilesdata=Cc1ncccc1-c1nc(O)nc2ccc(Br)cc12 value="10 to 200 nM"
smilesdata=Oc1nc(-c2ccccc2)c2cc(C(F)(F)F)ccc2n1 value="10 to 200 nM"

Provide reported IC50 for each item, in the same order as listed.
1. Cc1ccccc1-c1nc(O)nc2ccc(C3CC3)cc12
2. O=c1nc(-c2ccccc2)c2cc(Cl)ccc2[nH]1
3. COc1cc(C2CC2)cc2c(-c3ccccc3)nc(O)nc12

*A*
10 to 200 nM
10 to 200 nM
10 to 200 nM
